# Tested on: crabgrass
# procedure summary: Test B pre/postemergence crabgrass
# Format: in vivo, Digitaria sanguinalis
# measurement context: Rate 62 g/ha, Postemergence; scale 0 to 10, 0 no effect, 10 complete control
recorded metric: Crabgrass plant response rating
Number only, no unit.

Consider the following illustrative entries.
[[record]]
compound = "CC(C)N(C(=O)n1oc(=O)n(C(C)CCl)c1=O)c1ccc(Cl)cc1 (stereo not shown) [Compound 456]"
test_target = "crabgrass"
result = 4

[[record]]
compound = "C=C(Cn1c(=O)on(C(=O)N(c2ccccc2)C(C)C)c1=O)c1cccnc1 [Compound 498]"
test_target = "crabgrass"
result = 0

[[record]]
compound = "Cc1ccccc1-n1c(=O)on(C(=O)N(c2ccc3ccccc3c2)C(C)C)c1=O [Compound 306]"
test_target = "crabgrass"
result = 0


Next compound, Crabgrass plant response rating to be filled in.
Crabgrass plant response rating recorded for this compound, CC(C)N(C(=O)n1oc(=O)n(CC#N)c1=O)c1ccc(Cl)cc1 [Compound 476] , is 0
